# System: 266295-075-R-J1-PDC spheroid viability
# protocol_summary: Anticancer human tumor 266295-075-R-J1-PDC patient-derived head and neck squamous carcinoma cell line growth inhibition [POLQ]
# protocol_conditions: second compound 3.16 µM; first compound 0.000316 µM; active compounds read low; spheroids with HUVEC and MSC
The following compounds are listed with their measured viability, T/C values.

{"columns": ["compound", "study_system", "value_units", "viability, T/C"],
 "data": [
  ["CC[C@@]1(O)C(=O)OCc2c1cc1n(c2=O)Cc2cc3c(CN(C)C)c(O)ccc3nc2-1 + Nc1ccc(C#CCN(C(=O)Cc2ncc(C(F)(F)F)cc2C(F)(F)F)c2ccc(F)cc2)nn1", "266295-075-R-J1-PDC spheroid viability", "%", 97.3],
  ["CC[C@@]1(O)C(=O)OCc2c1cc1n(c2=O)Cc2cc3c(CN(C)C)c(O)ccc3nc2-1 + Cc1cccc(N(C)C(=O)C2C(O)CCN2c2nc(C)cc(C(F)(F)F)c2C#N)c1", "266295-075-R-J1-PDC spheroid viability", "%", 78],
  ["CC[C@@]1(O)C(=O)OCc2c1cc1n(c2=O)Cc2cc3c(CN(C)C)c(O)ccc3nc2-1 + COC1C(OC(N)=O)C(O)C(Oc2ccc3c(O)c(NC(=O)c4ccc(O)c(CC=C(C)C)c4)c(=O)oc3c2C)OC1(C)C", "266295-075-R-J1-PDC spheroid viability", "%", 114],
  ["Cn1ncnc1[C@H]1c2n[nH]c(=O)c3cc(F)cc(c23)N[C@@H]1c1ccc(F)cc1 + Nc1ccc(C#CCN(C(=O)Cc2ncc(C(F)(F)F)cc2C(F)(F)F)c2ccc(F)cc2)nn1", "266295-075-R-J1-PDC spheroid viability", "%", 103],
  ["Cn1ncnc1[C@H]1c2n[nH]c(=O)c3cc(F)cc(c23)N[C@@H]1c1ccc(F)cc1 + Cc1cccc(N(C)C(=O)C2C(O)CCN2c2nc(C)cc(C(F)(F)F)c2C#N)c1", "266295-075-R-J1-PDC spheroid viability", "%", 94.1],
  ["Cn1ncnc1[C@H]1c2n[nH]c(=O)c3cc(F)cc(c23)N[C@@H]1c1ccc(F)cc1 + COC1C(OC(N)=O)C(O)C(Oc2ccc3c(O)c(NC(=O)c4ccc(O)c(CC=C(C)C)c4)c(=O)oc3c2C)OC1(C)C", "266295-075-R-J1-PDC spheroid viability", "%", 86]
]}

====

# Tested on: 266295-075-R-J1-PDC spheroid viability
# protocol_summary: Anticancer human tumor 266295-075-R-J1-PDC cell line growth inhibition [POLQ];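 also: spheroids exposed to compounds for seven days before readout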
# protocol_conditions: second compound 0.316 µM; first compound 1 µM; active compounds read low; spheroids with HUVEC and MSC
The following compounds are listed with their measured viability, T/C values.
metric_name: viability, T/C (%)

{"columns": ["compound", "metric_name", "value_units", "reported_result"],
 "data": [
  ["CNCc1ccc(-c2[nH]c3cc(F)cc4c3c2CCNC4=O)cc1 + COC1C(OC(N)=O)C(O)C(Oc2ccc3c(O)c(NC(=O)c4ccc(O)c(CC=C(C)C)c4)c(=O)oc3c2C)OC1(C)C", "viability, T/C", "%", 91.5],
  ["CCc1cc2c(N3CCc4c(cc(Cn5ccnc5)cc4-c4cn(C)nc4C(F)(F)F)C3=O)cc(C)nc2c(OC)n1 + Nc1ccc(C#CCN(C(=O)Cc2ncc(C(F)(F)F)cc2C(F)(F)F)c2ccc(F)cc2)nn1", "viability, T/C", "%", 144],
  ["CCc1c2c(nc3ccc(O)cc13)-c1cc3c(c(=O)n1C2)COC(=O)[C@]3(O)CC + Cc1cccc(N(C)C(=O)C2C(O)CCN2c2nc(C)cc(C(F)(F)F)c2C#N)c1", "viability, T/C", "%", 75.1],
  ["CCc1cc2c(N3CCc4c(cc(Cn5ccnc5)cc4-c4cn(C)nc4C(F)(F)F)C3=O)ccnc2c(OC)n1 + Cc1cccc(N(C)C(=O)C2C(O)CCN2c2nc(C)cc(C(F)(F)F)c2C#N)c1", "viability, T/C", "%", 92.8],
  ["CC1COCCN1c1cc(C2(S(C)(=N)=O)CC2)nc(-c2ccnc3[nH]ccc23)n1 (stereo not given) + Nc1ccc(C#CCN(C(=O)Cc2ncc(C(F)(F)F)cc2C(F)(F)F)c2ccc(F)cc2)nn1", "viability, T/C", "%", 79],
  ["CC(C)n1c(=O)n(C)c2cnc3cc(F)c(-c4ccc(OCCCN5CCCCC5)nc4)cc3c21 + Cc1cccc(N(C)C(=O)C2C(O)CCN2c2nc(C)cc(C(F)(F)F)c2C#N)c1", "viability, T/C", "%", 90.8],
  ["O=C(Nc1ccc(O)c(NS(=O)(=O)c2ccc(F)cc2)c1)c1ccc(-c2ccccc2)cc1 + COC1C(OC(N)=O)C(O)C(Oc2ccc3c(O)c(NC(=O)c4ccc(O)c(CC=C(C)C)c4)c(=O)oc3c2C)OC1(C)C", "viability, T/C", "%", 104],
  ["C=CC(=O)N1CCN(c2nc(=O)n(-c3c(C)ccnc3C(C)C)c3nc(-c4c(O)cccc4F)c(F)cc23)C(C)C1 (stereo not given) + Nc1ccc(C#CCN(C(=O)Cc2ncc(C(F)(F)F)cc2C(F)(F)F)c2ccc(F)cc2)nn1", "viability, T/C", "%", 107],
  ["CC1COCCN1c1cc(C2(O)CC3CCC(C2)O3)c2cnn(-c3ccn[nH]3)c2n1 (stereo not given) + Nc1ccc(C#CCN(C(=O)Cc2ncc(C(F)(F)F)cc2C(F)(F)F)c2ccc(F)cc2)nn1", "viability, T/C", "%", 51.2],
  ["CCCS(=O)(=O)Nc1ccc(F)c(C(=O)c2c[nH]c3ncc(-c4ccc(Cl)cc4)cc23)c1F + Cc1cccc(N(C)C(=O)C2C(O)CCN2c2nc(C)cc(C(F)(F)F)c2C#N)c1", "viability, T/C", "%", 134],
  ["COc1cc2cc(C(=O)CCC(=O)O)sc2cc1OC + COC1C(OC(N)=O)C(O)C(Oc2ccc3c(O)c(NC(=O)c4ccc(O)c(CC=C(C)C)c4)c(=O)oc3c2C)OC1(C)C", "viability, T/C", "%", 99.2],
  ["C=CC(=O)N1CCN(c2nc(=O)n(-c3c(C)ccnc3C(C)C)c3nc(-c4c(O)cccc4F)c(F)cc23)C(C)C1 (stereo not given) + COC1C(OC(N)=O)C(O)C(Oc2ccc3c(O)c(NC(=O)c4ccc(O)c(CC=C(C)C)c4)c(=O)oc3c2C)OC1(C)C", "viability, T/C", "%", 106],
  ["CCc1cc2c(N3CCc4c(cc(Cn5ccnc5)cc4-c4cn(C)nc4C(F)(F)F)C3=O)ccnc2c(OC)n1 + Nc1ccc(C#CCN(C(=O)Cc2ncc(C(F)(F)F)cc2C(F)(F)F)c2ccc(F)cc2)nn1", "viability, T/C", "%", 138],
  ["O=C(c1cc(Cc2n[nH]c(=O)c3ccccc23)ccc1F)N1CCN(C(=O)C2CC2)CC1 + Cc1cccc(N(C)C(=O)C2C(O)CCN2c2nc(C)cc(C(F)(F)F)c2C#N)c1", "viability, T/C", "%", 91.4],
  ["COc1ccc([C@@H](O)c2cc(-c3ncnc4cc(N5CCOCC5)ccc34)c(F)cc2Cl)nn1 + Cc1cccc(N(C)C(=O)C2C(O)CCN2c2nc(C)cc(C(F)(F)F)c2C#N)c1", "viability, T/C", "%", 62.7],
  ["CC1COCCN1c1cc(C2(O)CC3CCC(C2)O3)c2cnn(-c3ccn[nH]3)c2n1 (stereo not given) + Cc1cccc(N(C)C(=O)C2C(O)CCN2c2nc(C)cc(C(F)(F)F)c2C#N)c1", "viability, T/C", "%", 49],
  ["COc1cccc(OCCCN)c1-c1cc(Nc2cnc(C#N)cn2)n[nH]1 + Nc1ccc(C#CCN(C(=O)Cc2ncc(C(F)(F)F)cc2C(F)(F)F)c2ccc(F)cc2)nn1", "viability, T/C", "%", 71.2],
  ["COc1ccc([C@@H](O)c2cc(-c3ncnc4cc(N5CCOCC5)ccc34)c(F)cc2Cl)nn1 + COC1C(OC(N)=O)C(O)C(Oc2ccc3c(O)c(NC(=O)c4ccc(O)c(CC=C(C)C)c4)c(=O)oc3c2C)OC1(C)C", "viability, T/C", "%", 64.7],
  ["O=C(c1cc(Cc2n[nH]c(=O)c3ccccc23)ccc1F)N1CCN(C(=O)C2CC2)CC1 + Nc1ccc(C#CCN(C(=O)Cc2ncc(C(F)(F)F)cc2C(F)(F)F)c2ccc(F)cc2)nn1", "viability, T/C", "%", 100],
  ["CCCS(=O)(=O)Nc1ccc(F)c(C(=O)c2c[nH]c3ncc(-c4ccc(Cl)cc4)cc23)c1F + COC1C(OC(N)=O)C(O)C(Oc2ccc3c(O)c(NC(=O)c4ccc(O)c(CC=C(C)C)c4)c(=O)oc3c2C)OC1(C)C", "viability, T/C", "%", 128]
]}

Hey, just so you know, these numbers are from PubChem BioAssay AID1963853.
